method: Half life in rats in hours
Assay type: ADME, organism-based
test-settings: rat, in vivo
quantity-name: half-life (h)

INSERT INTO measurements (smiles_code, quantity_name, val) VALUES
  ('C/C(=C(\F)C(=O)Nc1ccc(-c2ccccc2S(N)(=O)=O)cc1Cl)c1ccc2ccnc(N)c2c1', 'half-life', 1.43),
  ('C/C(=C(\F)C(=O)Nc1ccc(-c2ccccc2S(N)(=O)=O)cc1Br)c1ccc2ccnc(N)c2c1', 'half-life', 1.6),
  ('C/C(=C(\F)C(=O)Nc1ccc(-c2ccccc2S(N)(=O)=O)cc1F)c1ccc2ccnc(N)c2c1', 'half-life', 1.7);

a: Nc1nccc2ccc(/C=C\C(=O)Nc3ccc(-c4ccccc4S(N)(=O)=O)cc3)cc12
b: C/C(=C(\F)C(=O)Nc1ccc(-c2ccccc2S(N)(=O)=O)cc1)c1ccc2ccnc(N)c2c1
// pick min by half-life: a , b Answer by stating the label of the chosen item. a
(a: 1.51 h, b: 2.38 h)

====

method: Oral bioavailability in rat
Type: ADME, organism-based
test-settings: in vivo
quantity-name: bioavailability (%)

INSERT INTO assay_data (smiles_code, quantity_name, val) VALUES
  ('C/C(=C(\F)C(=O)Nc1ccc(-c2ccccc2S(N)(=O)=O)cc1F)c1ccc2ccnc(N)c2c1', 'bioavailability', 13.5);

1: C/C(=C(\F)C(=O)Nc1ccc(-c2ccccc2S(N)(=O)=O)cc1)c1ccc2ccnc(N)c2c1
2: Nc1nccc2ccc(/C=C\C(=O)Nc3ccc(-c4ccccc4S(N)(=O)=O)cc3)cc12
3: C/C(=C(\F)C(=O)Nc1ccc(-c2ccccc2S(N)(=O)=O)cn1)c1ccc2ccnc(N)c2c1
4: C/C(=C(\F)C(=O)Nc1ccc(-c2ccccc2S(N)(=O)=O)cc1Br)c1ccc2ccnc(N)c2c1
Arrange the 4 entries by bioavailability so the values rise. Use the labels to give the ranking in the order requested. 2, 1, 3, 4

====

method: Plasma clearance in rats
Assay type: ADME, organism-based
test-settings: rat
quantity-name: clearance (mL/min/kg)

// known answers, use as guide
INSERT INTO measurements (smiles_code, scale_unit, val) VALUES
  ('C/C(=C(\F)C(=O)Nc1ccc(-c2ccccc2S(N)(=O)=O)cn1)c1ccc2ccnc(N)c2c1', 'mL/min/kg', 19.1),
  ('C/C(=C(\F)C(=O)Nc1ccc(-c2ccccc2S(N)(=O)=O)cc1Cl)c1ccc2ccnc(N)c2c1', 'mL/min/kg', 6.7),
  ('Nc1nccc2ccc(/C=C\C(=O)Nc3ccc(-c4ccccc4S(N)(=O)=O)cc3)cc12', 'mL/min/kg', 56.4);

P: C/C(=C(\F)C(=O)Nc1ccc(-c2ccccc2S(N)(=O)=O)cc1)c1ccc2ccnc(N)c2c1
Q: C/C(=C(\F)C(=O)Nc1ccc(-c2ccccc2S(N)(=O)=O)cc1F)c1ccc2ccnc(N)c2c1
R: C/C(=C(\F)C(=O)Nc1ccc(-c2ccccc2S(N)(=O)=O)cc1Br)c1ccc2ccnc(N)c2c1
Arrange the 3 entries by clearance so the values rise. Use the labels to give the ranking in the order requested. R, Q, P

====

method: Half life in dogs in hours
Type: ADME, organism-based, Canis lupus familiaris
test-settings: dog, in vivo
quantity-name: half-life (h)

INSERT INTO assay_data (smiles_code, quantity_name, scale_unit, val) VALUES
  ('C/C(=C(\F)C(=O)Nc1ccc(-c2ccccc2S(N)(=O)=O)cc1Br)c1ccc2ccnc(N)c2c1', 'half-life', 'h', 6),
  ('C/C(=C(\F)C(=O)Nc1ccc(-c2ccccc2S(N)(=O)=O)cc1)c1ccc2ccnc(N)c2c1', 'half-life', 'h', 7.1);

====

target-or-system: Prothrombin (Homo sapiens, UniProt P00734)
quantity-name: pIC50
Please report pIC50 as the negative decimal logarithm of the molar concentration, giving only the number.

So what's the measured pIC50 for this one? `C/C(=C(\F)C(=O)Nc1ccc(-c2ccccc2S(N)(=O)=O)cc1Br)c1ccc2ccnc(N)c2c1` 5.32

====

target-or-system: Serine protease 1 (Homo sapiens)
Sequence (P07477 whole entry): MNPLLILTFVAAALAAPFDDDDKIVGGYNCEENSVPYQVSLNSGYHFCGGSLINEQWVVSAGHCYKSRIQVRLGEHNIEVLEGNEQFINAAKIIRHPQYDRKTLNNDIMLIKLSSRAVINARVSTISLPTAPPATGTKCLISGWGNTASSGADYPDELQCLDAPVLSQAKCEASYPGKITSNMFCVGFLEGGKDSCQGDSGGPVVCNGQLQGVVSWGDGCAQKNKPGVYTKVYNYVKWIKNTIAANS
quantity-name: pIC50
Please report pIC50 as the negative decimal logarithm of the molar concentration, giving only the number.

So what's the measured pIC50 for this one? `C/C(=C(\F)C(=O)Nc1ccc(-c2ccccc2S(N)(=O)=O)cc1F)c1ccc2ccnc(N)c2c1` 5.01

====

method: Plasma clearance in dogs
Type: ADME, organism-based, Canis lupus familiaris
test-settings: dog
quantity-name: clearance (mL/min/kg)

INSERT INTO measurements (smiles_code, scale_unit, val) VALUES
  ('C/C(=C(\F)C(=O)Nc1ccc(-c2ccccc2S(N)(=O)=O)cc1)c1ccc2ccnc(N)c2c1', 'mL/min/kg', 11.4),
  ('C/C(=C(\F)C(=O)Nc1ccc(-c2ccccc2S(N)(=O)=O)cc1Br)c1ccc2ccnc(N)c2c1', 'mL/min/kg', 10.8);

====

method: Volume distribution in rats
Assay type: ADME, organism-based
test-settings: rat, in vivo; read-out: Vz
quantity-name: Vd (L/kg)

INSERT INTO assay_data (smiles_code, scale_unit, val) VALUES
  ('C/C(=C(\F)C(=O)Nc1ccc(-c2ccccc2S(N)(=O)=O)cc1)c1ccc2ccnc(N)c2c1', 'L/kg', 10),
  ('C/C(=C(\F)C(=O)Nc1ccc(-c2ccccc2S(N)(=O)=O)cn1)c1ccc2ccnc(N)c2c1', 'L/kg', 2.7),
  ('C/C(=C(\F)C(=O)Nc1ccc(-c2ccccc2S(N)(=O)=O)cc1Cl)c1ccc2ccnc(N)c2c1', 'L/kg', 0.8);

a: C/C(=C(\F)C(=O)Nc1ccc(-c2ccccc2S(N)(=O)=O)cc1Br)c1ccc2ccnc(N)c2c1
b: C/C(=C(\F)C(=O)Nc1ccc(-c2ccccc2S(N)(=O)=O)cc1F)c1ccc2ccnc(N)c2c1
// pick min by Vd: a , b Answer by stating the label of the chosen item. a

====

target-or-system: Coagulation factor X (Homo sapiens, UniProt P00742)
Sequence (P00742 41-179 limits assumed): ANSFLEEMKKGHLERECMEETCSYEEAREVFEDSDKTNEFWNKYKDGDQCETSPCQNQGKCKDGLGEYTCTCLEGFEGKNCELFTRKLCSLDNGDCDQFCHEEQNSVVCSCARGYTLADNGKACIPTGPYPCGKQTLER
Sequence (P00742 235-488 limits assumed): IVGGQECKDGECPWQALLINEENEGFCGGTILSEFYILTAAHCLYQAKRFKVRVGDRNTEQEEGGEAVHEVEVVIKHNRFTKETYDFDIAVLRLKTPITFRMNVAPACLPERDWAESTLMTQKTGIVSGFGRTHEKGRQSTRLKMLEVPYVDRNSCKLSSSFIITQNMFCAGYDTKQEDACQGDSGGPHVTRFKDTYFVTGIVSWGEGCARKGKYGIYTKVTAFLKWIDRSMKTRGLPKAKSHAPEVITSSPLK
pIC50: −log10 of the molar value.
quantity-name: pIC50

INSERT INTO assay_data (molecule, quantity_name, val) VALUES
  ('C/C(=C(\F)C(=O)Nc1ccc(-c2ccccc2S(N)(=O)=O)cc1F)c1ccc2ccnc(N)c2c1', 'pIC50', 8.30),
  ('C/C(=C(\F)C(=O)Nc1ccc(-c2ccccc2S(N)(=O)=O)cc1F)c1cccc(C(=N)S)c1', 'pIC50', 6.85);

P: C/C(=C(\F)C(=O)Nc1ccc(-c2ccccc2S(N)(=O)=O)cc1Br)c1cc(Br)ccc1[N+](=O)[O-]
Q: C/C(=C(\F)C(=O)Nc1ccc(-c2ccccc2S(N)(=O)=O)cc1Cl)c1ccc2ccnc(N)c2c1
R: C/C(=C(\F)C(=O)Nc1ccc(-c2ccncc2[S+](C)[O-])cc1F)c1ccc2ccnc(N)c2c1 (configuration not stated)
# rank_down: sort by pIC50, max first Use the labels to give the ranking in the order requested. Q, R, P
(Q: 7.96, R: 5.82, P: 5.54)

1: C/C(=C(\F)C(=O)Nc1ccc(-c2ccncc2S(C)(=O)=O)cc1)c1ccc2ccnc(N)c2c1
2: C/C(=C(\F)C(=O)Nc1ccc(-c2ccccc2S(N)(=O)=O)cc1)c1cccc(C(N)=O)c1
// pick min by pIC50: 1 , 2 Answer by stating the label of the chosen item. 2
